# assayed system: GABAAR-α2 loop fragment α2-min3
# method summary: ITC; CB-SH3 titrated against the GABAAR α-subunit loops and truncated α2 constructs; purified proteins
pKd: −log10 of the molar value.
parameter measured: pKd

Respond only with pKd recorded for SH3 domain of collybistin (CB-SH3), Q3UTH8 4-72 (domain or fragment) LITGDSIVSAEAVWDHVTMANRELAFKAGDVIKVLDASNKDWWWGQIDDEEGWFPASFVRLWVNQEDGV
< 3.30
